Values compiled from ChEMBL document CHEMBL1127246.

Test: Partition coefficient (logP)
Type: physicochemical
Conditions: octanol/water
Consider the following compounds; for each one, report its logP.
Answers are plain numbers.

Examples with their reported logP follow.
1) CO/N=C/C1=CCCNC1
1.01
2) CO/N=C(\C#N)C1=CCCN(C)C1
1.76
3) CO/N=C/C1=CCCN(C)C1 [MILAMELINE]
1.45
4) CO/N=C(\C#N)C1=CCCNC1
1.41

We now examine a further compound.
Incoming: Param item = `CO/N=C(\F)C1=CCCN(C)C1` ; retrieve measured logP.
Outgoing: 1.48

----------
Test system: Rattus norvegicus
Test: Effective dose causing 50% decrease in mean blood pressure upon intravenous administration in rats
Format: functional
measured_parameter: ED50 (mg/kg)
One number for each entry, in mg/kg.

1. CO/N=C(\F)C1=CCCN(C)C1
0.04
2. CO/N=C/C1=CCCNC1
0.067

Incoming: Param item = CO/N=C/C1=CCCN(C)C1 [MILAMELINE] ; retrieve measured ED50.
Outgoing: 0.15

----------
Biological target: Muscarinic acetylcholine receptor (Rattus norvegicus) (UniProt P08482+P08483+P08485+P08911+P10980)
Assay: Selectivity is the ratio of inhibitory activities against muscarinic receptors, determined using radioligand [3H]OXO-M and 3[H}-QND
Type: protein assay
Class membership depends on Ratio alone; the intervals are class 0 = under 20, class 1 = from 20 up to 50, class 2 = 50 and over

1. CO/N=C(/C1=CCCN(C)C1)C(F)F
class 0
2. CO/N=C(\F)C1=CCCN(C)C1
class 2
3. CON=C(C1=CCCN(C)C1)C(F)(F)F
class 0

Incoming: Which category fits this record: `CCN1CCC=C(/C(C#N)=N/OC)C1`
Outgoing: class 0

Incoming: Which category fits this record: `CO/N=C(\CF)C1=CCCN(C)C1`
Outgoing: class 0

----------
Assay: pKa value was measured
Type: physicochemical
Hi, to clarify the labels: T covers pKa from 8 upward, F covers anything below 8.

1. CO/N=C(\F)C1=CCCN(C)C1
F
2. CO/N=C(\C#N)C1=CCCNC1
T
3. CO/N=C(\C#N)C1=CCCN(C)C1
F

Next up:
Incoming: Hi, just wondering whether `CO/N=C/C1=CCCNC1` shows pKa of 8 or higher.
Outgoing: T

----------
Target: Muscarinic acetylcholine receptor (Rattus norvegicus) (UniProt P08482+P08483+P08485+P08911+P10980)
Assay: Selectivity is the ratio of inhibitory activities against muscarinic receptors, determined using radioligand [3H]OXO-M and 3[H}-QND
Type: protein assay
measured_parameter: Ratio
One number for each entry.

1. CO/N=C(\F)C1CN2CCC1CC2 (stereo unspecified)
65

Lab note: each molecule below needs its Ratio filled in.
1. CO/N=C(\C#N)C1=CCCNC1
2. CO/N=C/C1=CCCNC1
3. CO/N=C(\Cl)C1=CCCNC1
4. CO/N=C(\Cl)C1CN2CCC1CC2 (stereo unspecified)
5. CO/N=C(\C#N)C1CN2CCC1CC2 (stereo unspecified)
6. CO/N=C/C1=CCCN(C)C1

Outgoing:
1. 54
2. 280
3. 37
4. 16
5. 14
6. 130

----------
Consider the following molecules; for each one, report its Ratio.
Molecular target: Muscarinic acetylcholine receptor (Rattus norvegicus) (UniProt P08482+P08483+P08485+P08911+P10980)
Assay: Selectivity is the ratio of inhibitory activities against muscarinic receptors, determined using radioligand [3H]OXO-M and 3[H}-QND
Type: protein assay
One number for each entry.

Examples with their reported Ratio follow.
1) CO/N=C(\CF)C1=CCCNC1
40
2) CO/N=C(\F)C1=CCCNC1
70
3) CO/N=C(\C#N)C1=CCCN(C)C1
30

We now examine a further molecule.
Incoming: Param item = `CO/N=C(\Cl)C1=CCCN(C)C1` ; retrieve measured Ratio.
Outgoing: 11
